# targetEntity: OsWRKY34 (Oryza sativa, UniProt Q0JBA9 1-250)
# Sequence (Q0JBA9 entry or part of it): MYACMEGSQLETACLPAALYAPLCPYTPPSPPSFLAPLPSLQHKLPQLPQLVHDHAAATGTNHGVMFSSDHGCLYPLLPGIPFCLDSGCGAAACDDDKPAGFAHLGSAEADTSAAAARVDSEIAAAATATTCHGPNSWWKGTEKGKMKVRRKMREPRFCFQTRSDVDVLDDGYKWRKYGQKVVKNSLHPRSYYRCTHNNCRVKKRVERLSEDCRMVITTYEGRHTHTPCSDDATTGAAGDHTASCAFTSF
# experimentalProtocol: protein-binding microarray (RPBM); PBS, 2% BSA, 51.3 ng/ul salmon testes DNA, 50 uM zinc acetate, 200 nM TF, 25 C, 1 h; high values mean tight binding
# conditionDetails: protein: recombinant; tags: N-terminal polyhistidine and DsRed monomer fusion (pET32a); label: CyDye5-dUTP incorporated in the synthesized complementary strand; 3' TTTTT single-stranded linker to array surface; dsDNA, one strand shown
Over roughly 68,000 sequences, “fluorescence intensity (a.u.)” has its median near 9,100; the highest 2% begin near 16,000. Many of the other results were omitted from the sample, so the highest values are more common in it than they were.
Record form. Attribute: binding signal. Fill in for each entry.

[
  {
    "seq": "CTTTGCGTCTCCTCCCCTTTCTAATCCACTTTTTATTTTTCGGAGTCACCTAGTGCAG",
    "targetEntity": "OsWRKY34 (Oryza sativa, UniProt Q0JBA9 1-250)",
    "binding signal": "9730 fluorescence intensity (a.u.)"
  },
  {
    "seq": "TCCAGAAGACACCCGCCTGCTCCACTGCCGTTCCTGTCGACGGAGTCACCTAGTGCAG",
    "targetEntity": "OsWRKY34 (Oryza sativa, UniProt Q0JBA9 1-250)",
    "binding signal": "9120 fluorescence intensity (a.u.)"
  },
  {
    "seq": "CATTCCGGTTGGTGTTTTTCGCTTGATTTGTACTACTATTCGGAGTCACCTAGTGCAG",
    "targetEntity": "OsWRKY34 (Oryza sativa, UniProt Q0JBA9 1-250)",
    "binding signal": "18500 fluorescence intensity (a.u.)"
  },
  {
    "seq": "TAATATTTCTTGCGGTGGGTTGGATTGATATCGATTGTTTCGGAGTCACCTAGTGCAG",
    "targetEntity": "OsWRKY34 (Oryza sativa, UniProt Q0JBA9 1-250)",
    "binding signal": "17600 fluorescence intensity (a.u.)"
  },
  {
    "seq": "CATCCGACCTCAACTCCTCTGTCCTCTACTACGCATCTCTCGGAGTCACCTAGTGCAG",
    "targetEntity": "OsWRKY34 (Oryza sativa, UniProt Q0JBA9 1-250)",
    "binding signal": "14100 fluorescence intensity (a.u.)"
  }
]

Record binding signal per entry; entries follow.
1. TATTGCACCTTTTCTCTATTGTTTTGAATTCAGTGAAGATCGGAGTCACCTAGTGCAG
2. CGCTGATTGGGTTGGGTCGGGTTAGCTTTGGTTTCAATGCCGGAGTCACCTAGTGCAG
3. CCCTAAATATTTGACGCCGTTGACTTTTTTAAATATGTTTCGGAGTCACCTAGTGCAG
4. GACGAGACCGACGCCGTCATCCTCCTTCTCACGCTACCATCGGAGTCACCTAGTGCAG
5. GCGGAGGAAAGGTGGGGTGGTAAAAAACGGAAAAACCGGACGGAGTCACCTAGTGCAG

Result:
["11600 fluorescence intensity (a.u.)", "11200 fluorescence intensity (a.u.)", "27300 fluorescence intensity (a.u.)", "8040 fluorescence intensity (a.u.)", "8960 fluorescence intensity (a.u.)"]

Value sought for every listed sequence: binding signal.
1. TTTTTTTTCTGTTAGTACTGTTTTTGGTCCAAACATCTTTCGGAGTCACCTAGTGCAG
2. GGTGGGTGTTTTAATGTGACATGATATTTGTGGTTGGGTTCGGAGTCACCTAGTGCAG
3. TCTTTCCTGTTTCCGCTTGGTTTTCCGGTGTTTATTTTGTCGGAGTCACCTAGTGCAG
4. TGTACATGTGTTTGATTTTGCTTGTGGTTGCCGTGGATTTCGGAGTCACCTAGTGCAG
5. GCGTGTGTTCTTGTGCTGGATTGTGGAGTTCTTGATCCCTCGGAGTCACCTAGTGCAG

Result:
8180 fluorescence intensity (a.u.)
21700 fluorescence intensity (a.u.)
14200 fluorescence intensity (a.u.)
11500 fluorescence intensity (a.u.)
10000 fluorescence intensity (a.u.)

Give one value of binding signal per listed sequence.
1. GCATCGACCGCGCGCGTATACGTTAACGCTCACCTTTGTTCGGAGTCACCTAGTGCAG
2. CCCATTCTAGATATTAACTACTAATCTGACTCTATTTTTTCGGAGTCACCTAGTGCAG
3. GGGCCTAGTTTTTCCAGGTAAAGTTGACCAAAAGTCTTCACGGAGTCACCTAGTGCAG
4. CTTCCCTAAATGTTTGACACCGTTGACTTTTTAAAATATACGGAGTCACCTAGTGCAG

Result:
["9420 fluorescence intensity (a.u.)", "8880 fluorescence intensity (a.u.)", "8890 fluorescence intensity (a.u.)", "10500 fluorescence intensity (a.u.)"]

Just for reference, paper PMC7819943 is where these values come from.
